Where do these numbers come from? They come from the NIST ThermoML archive (doi:10.1021/je034265f).

Experiment: activity coefficient (dimensionless); of the first substance listed, at infinite dilution; xn = mol fraction of the nth substance listed
Conditions: 290.01 K; Liquid; x1 = 0
reported_endpoint: activity coefficient
Hey, just send me the number, nothing else.

Answered examples (5):
INSERT INTO measurements (compound, reported_endpoint, measured_number) VALUES
  ('C=CCC [1-butene] + CCCCO', 'activity coefficient', 3.4),
  ('CC(C)C [2-methylpropane] + CCCCO', 'activity coefficient', 4.3),
  ('C=CC [propene] + CCCCO', 'activity coefficient', 3),
  ('C/C=C/C [(E)-2-butene] + CCCCO', 'activity coefficient', 3.4),
  ('C=CC=C [1,3-butadiene] + CCCCO', 'activity coefficient', 2.9);

-- ask Return activity coefficient for the following compound: C=C(C)C [2-methylpropene] + CCCCO
-- reply 3.4

-- ask Identify the reported activity coefficient for the following entry. CCCC [butane] + CCCCO
-- reply 4.1

-- ask Return value of activity coefficient for input CCC [propane] + CCCCO , no commentary.
-- reply 3.6
